study target: NgBCCP
cond: pH 7.5
measured metric: pKi
For clarity, pKi is expressed as the negative log10 of concentration in mol/L.

Record c1c[nH]cn1 , field pKi: 2.05
